TESTED_TARGET: angiotensin-converting enzyme 2 (UniProt Q9BYF1 18-805)
Sequence (Q9BYF1 18-805): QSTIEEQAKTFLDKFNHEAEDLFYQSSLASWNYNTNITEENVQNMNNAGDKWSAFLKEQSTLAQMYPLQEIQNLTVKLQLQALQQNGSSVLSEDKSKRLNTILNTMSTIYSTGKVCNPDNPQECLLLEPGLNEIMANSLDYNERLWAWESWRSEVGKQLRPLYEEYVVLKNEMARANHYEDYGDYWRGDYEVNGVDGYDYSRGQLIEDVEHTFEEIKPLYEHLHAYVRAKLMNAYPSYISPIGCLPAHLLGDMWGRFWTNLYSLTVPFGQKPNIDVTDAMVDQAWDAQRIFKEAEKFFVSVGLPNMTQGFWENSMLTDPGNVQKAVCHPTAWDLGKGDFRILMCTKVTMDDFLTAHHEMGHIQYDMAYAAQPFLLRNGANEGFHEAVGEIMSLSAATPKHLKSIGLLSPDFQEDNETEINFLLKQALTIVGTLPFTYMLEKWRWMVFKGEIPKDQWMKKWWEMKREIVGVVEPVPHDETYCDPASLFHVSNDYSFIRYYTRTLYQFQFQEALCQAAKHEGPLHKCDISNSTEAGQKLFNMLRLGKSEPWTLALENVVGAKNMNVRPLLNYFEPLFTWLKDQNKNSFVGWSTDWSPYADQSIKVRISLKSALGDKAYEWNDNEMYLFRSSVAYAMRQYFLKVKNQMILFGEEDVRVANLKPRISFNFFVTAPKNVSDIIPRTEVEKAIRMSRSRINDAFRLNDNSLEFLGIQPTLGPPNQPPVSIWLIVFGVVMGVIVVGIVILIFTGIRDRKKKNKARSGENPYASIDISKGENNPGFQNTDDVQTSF
RUN_DESCRIPTION: SPR; Biacore; who was immobilised and the conditions are not given
CONDITIONS: both partners purified
PROPERTY_MEASURED: Kd (nM)
Lab book: enter the figure in nM, no units written.

The binder listed as VQWRIRVAVIRK (also called antimicrobial peptide DP7) [antibacterial peptide DP7] has a reported Kd of 227
